Source of measurements: patent US10703756B2

A collection of compounds and their measured log10(IC50)
SYSTEM_UNDER_TEST: JAK3 enzyme (Homo sapiens)
Sequence (P52333 whole entry, species assumed): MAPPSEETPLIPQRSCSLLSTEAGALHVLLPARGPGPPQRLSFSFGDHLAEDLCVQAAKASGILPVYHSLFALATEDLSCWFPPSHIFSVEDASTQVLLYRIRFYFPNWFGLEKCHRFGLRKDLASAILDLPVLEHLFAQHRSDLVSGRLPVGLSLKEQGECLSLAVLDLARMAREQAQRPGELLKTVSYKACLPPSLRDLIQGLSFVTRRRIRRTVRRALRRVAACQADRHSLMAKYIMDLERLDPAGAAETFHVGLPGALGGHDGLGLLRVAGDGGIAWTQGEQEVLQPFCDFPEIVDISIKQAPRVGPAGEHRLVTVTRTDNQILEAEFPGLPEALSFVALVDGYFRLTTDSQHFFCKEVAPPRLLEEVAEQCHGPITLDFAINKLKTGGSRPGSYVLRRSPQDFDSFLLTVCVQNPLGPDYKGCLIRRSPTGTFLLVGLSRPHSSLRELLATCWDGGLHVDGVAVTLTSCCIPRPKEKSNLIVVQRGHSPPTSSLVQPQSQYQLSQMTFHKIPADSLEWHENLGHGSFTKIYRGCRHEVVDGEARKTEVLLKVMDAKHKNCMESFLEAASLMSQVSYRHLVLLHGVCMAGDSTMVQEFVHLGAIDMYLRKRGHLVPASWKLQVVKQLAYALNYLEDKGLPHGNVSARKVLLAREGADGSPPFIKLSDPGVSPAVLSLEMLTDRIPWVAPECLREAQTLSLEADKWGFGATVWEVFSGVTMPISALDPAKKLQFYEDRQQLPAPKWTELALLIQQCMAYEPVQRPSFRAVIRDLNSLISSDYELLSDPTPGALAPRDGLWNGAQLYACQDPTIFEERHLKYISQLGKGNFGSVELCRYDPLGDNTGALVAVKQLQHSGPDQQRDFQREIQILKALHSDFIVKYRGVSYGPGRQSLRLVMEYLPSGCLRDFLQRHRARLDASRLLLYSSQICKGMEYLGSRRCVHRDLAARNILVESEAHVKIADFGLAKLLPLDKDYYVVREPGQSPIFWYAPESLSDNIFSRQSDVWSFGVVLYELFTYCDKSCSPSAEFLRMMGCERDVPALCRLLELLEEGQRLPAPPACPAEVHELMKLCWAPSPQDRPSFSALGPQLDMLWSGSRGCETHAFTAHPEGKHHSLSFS
EXPERIMENT_NOTES: JAK Caliper Enzyme Assay at 1 mM ATP
Type: biochemical
Friendly reminder: values = log10 of IC50, unit nM.

C=CC(=O)N1C[C@@H](Nc2cnc3[nH]cc(C(=O)N[C@@H](C)COC)c3n2)CC[C@H]1C (racemic) [Example 65] ... 1.72

query: Could you tell me which log10(IC50) is on file for C=CC(=O)N1C[C@H](Nc2cnc3[nH]cc(C(=O)NCCOC)c3n2)[C@@](C)(C#N)C1 ?
result: 2.78

query: For the compound shown here, C=CC(=O)N1CCC(N(C)c2cnc3[nH]cc(C(=O)N4CCC4)c3n2)CC1 , give the reported log10(IC50).
result: 3.43

query: Which log10(IC50) is reported for this compound? C=CC(=O)N1CC[C@H](Nc2cnc3[nH]cc(C(=O)NCC)c3n2)C[C@@H]1C (racemic)
result: 2.56

query: Recorded log10(IC50) for C=CC(=O)N1CCC(Oc2cnc3[nH]cc(C(=O)NCC(C)(C)C)c3n2)CC1 , please?
result: 2.85

###

SYSTEM_UNDER_TEST: JAK3 enzyme (Homo sapiens)
EXPERIMENT_NOTES: JAK Caliper Enzyme Assay at 4 μM ATP
Format: biochemical
pIC50: −log10 of the molar value.
Binary call on pIC50: 1.0 from 9 upward, 0.0 beneath that.

query: Quick check, pIC50 >= 9? C=CC(=O)N1CCN(c2cnc3[nH]cc(C(=O)NC(CO)c4ccc(F)cc4)c3n2)CC1(C)C (racemic) [Example 165]
result: 0.0

query: Evaluate C=CC(=O)N1CCC(Nc2cnc3[nH]cc(C(=O)NCc4sc(C)nc4C(F)(F)F)c3n2)CC1 [Example 195] : pIC50 at minimum 9?
result: 1.0

query: Kindly determine if pIC50 recorded for C=CC(=O)N1C[C@@H](Nc2ncnc3[nH]ccc23)CC[C@H]1COC (single isomer, unassigned) [Example 96] is above or exactly 9.
result: 0.0

query: Can C=CC(=O)N1C[C@@H](Nc2cnc3[nH]cc(C(=O)N[C@H](C)COC)c3n2)CC[C@H]1C (racemic) [Example 68] be said to have pIC50 at or above 9?
result: 0.0

query: Reported pIC50 at or above 9? C=CC(=O)N1CCN(c2cnc3[nH]cc(C(=O)NCC(C)(C)C)c3n2)C[C@@H]1CC(C)C [Example 330]
result: 1.0

query: Reported pIC50 at or above 9? C=CC(=O)N1CCN(c2cnc3[nH]cc(C(=O)N[C@@H](C)COc4ccccc4)c3n2)CC1(C)C [Example 147]
result: 0.0

query: I'd appreciate it if you could say whether C=CC(=O)N1CCN(c2cnc3[nH]cc(C(=O)NC(C)(C)COC)c3n2)CC1(C)C [Example 151] has pIC50 at least equal to 9.
result: 0.0

query: API: above_or_equal(metric=pIC50, cutoff=9) for item C=CC(=O)N1C[C@@H](CC#N)C[C@@H](Nc2ncnc3[nH]ccc23)C1 (racemic) [Example 105]
result: 1.0

query: Determine whether this compound has pIC50 no lower than 9: C=CC(=O)N1CC(Nc2cnc3[nH]cc(C(=O)NCC(C)C)c3n2)C2(CC2)C1 (stereo not drawn) [Example 236]
result: 0.0

query: Assess whether reported pIC50 for C=CC(=O)N1CCC(Oc2cnc3[nH]cc(C(=O)NCc4cccc(F)c4)c3c2)CC1 [Example 340] sits at 9 or higher.
result: 0.0

query: Dear colleague, could you confirm whether C=CC(=O)N1CCC(Oc2cnc3[nH]cc(C(=O)NCC4(O)CC[C@@H](C)C4)c3n2)CC1 (mixture of isomers) [Example 226] has pIC50 at or above 9?
result: 0.0

query: Quick check, pIC50 >= 9? C=CC(=O)N1CC[C@H](Nc2cnc3[nH]cc(C(=O)NCC)c3n2)C[C@H]1C (racemic) [Example 40]
result: 1.0
